assayed-target: SMC2 hinge long (mSMC2h of mSMC2h4h-l);SMC4 hinge long (mSMC4h of mSMC2h4h-l) (mouse;mouse) (UniProt Q8CG48+Q8CG47)
Sequence (Q8CG48 492-680, chain 1 of 2): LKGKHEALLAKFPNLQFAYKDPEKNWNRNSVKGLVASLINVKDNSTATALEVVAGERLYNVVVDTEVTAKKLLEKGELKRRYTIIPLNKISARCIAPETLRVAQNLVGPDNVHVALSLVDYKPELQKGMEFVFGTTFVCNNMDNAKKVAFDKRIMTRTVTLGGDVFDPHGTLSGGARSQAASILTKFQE
Sequence (Q8CG47 581-766, chain 2 of 2): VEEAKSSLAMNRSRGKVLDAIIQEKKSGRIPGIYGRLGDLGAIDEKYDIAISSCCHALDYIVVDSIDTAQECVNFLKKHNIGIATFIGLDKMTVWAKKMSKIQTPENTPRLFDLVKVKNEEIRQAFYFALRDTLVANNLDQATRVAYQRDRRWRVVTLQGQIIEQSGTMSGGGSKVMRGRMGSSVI
test-name: fluorescence quenching titration
reported-endpoint: pKd
Give bare numbers, as −log10 of the molar value.

Below, 2 sequences whose answers are already recorded.
INSERT INTO assay_data (seq, reported_endpoint, data_value) VALUES
  ('CATCCTGTCCGCTGC / GCAGCGGACAGGATGTTTTTTTTTTTTTTT [30-mer ds-ssDNA-3'']', 'pKd', 5.81),
  ('CATCCTGTCCGCTGC / CCGGAGAGCATCTCG / GCAGCGGACAGGATGTTTTTTTTTTTTTTTCGAGATGCTCTCCGG [45-mer ds-ss-dsDNA]', 'pKd', 6.18);

Below: the item to evaluate.
query: Please look at this sequence and report its pKd: CATCCTGTCCGCTGC / TTTTTTTTTTTTTTTGCAGCGGACAGGATG [30-mer ds-ssDNA-5']
result: 5.75
